Measured values drawn from PubChem BioAssay AID1159580 for this set.

assay: chemical genetic growth profiling, strain panel (AID 1159580);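 note: tested at 20 µM; growth read once vehicle control cultures reached saturation at 30 °C; 1 = growth at the plate median or of vehicle wells; lower values mean less growth of the strain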; settings: S. cerevisiae deletion strains, growth OD, locus YPL256C, strain CLN2
Screen size: about 5,500 compounds; about 2,000 (36%) were called active. Another 18% or so got no clear call; they are omitted. Cut-off read from the data, not from the text of the source: active = normalized growth mostly below about 0.91 (no sharp cut-off); inconclusive = no clear call, values can overlap the other calls; inactive = mostly above about 0.92. The list shows a part of the results.
Classes used: 1 = active, -1 = inactive

{"cpd smiles": "O=C(Nc1ccc(OC(F)(F)F)cc1)OC1CN(C(c2ccccc2)c2ccccc2)C1", "answer label": -1}
{"cpd smiles": "CC1(C)OC(=O)C(=Cc2cccn2-c2ccc(C(F)(F)F)cc2)C(=O)O1", "answer label": 1}
{"cpd smiles": "CN1C(C(=O)Nc2ccccn2)=C(O)c2ccccc2S1(=O)=O", "answer label": -1}
{"cpd smiles": "Cc1c(C(=S)Nc2ccccc2)sc2ccccc12", "answer label": -1}
{"cpd smiles": "O=C(Nc1ccc(OC(F)(F)F)cc1)N1CCN(c2nc(-c3ccccc3)ns2)CC1", "answer label": 1}
